target: M. fascicularis KLB and human FGFR1c co-expressed on HEK293/MfKLB/hFGFR1c/SRE-Luc cells (M. fascicularis; human, UniProt A0A2K5WB58 1-1044); assay: cell-based or functional assay
Sequence (chain, as listed by the source, chain 1 of 2): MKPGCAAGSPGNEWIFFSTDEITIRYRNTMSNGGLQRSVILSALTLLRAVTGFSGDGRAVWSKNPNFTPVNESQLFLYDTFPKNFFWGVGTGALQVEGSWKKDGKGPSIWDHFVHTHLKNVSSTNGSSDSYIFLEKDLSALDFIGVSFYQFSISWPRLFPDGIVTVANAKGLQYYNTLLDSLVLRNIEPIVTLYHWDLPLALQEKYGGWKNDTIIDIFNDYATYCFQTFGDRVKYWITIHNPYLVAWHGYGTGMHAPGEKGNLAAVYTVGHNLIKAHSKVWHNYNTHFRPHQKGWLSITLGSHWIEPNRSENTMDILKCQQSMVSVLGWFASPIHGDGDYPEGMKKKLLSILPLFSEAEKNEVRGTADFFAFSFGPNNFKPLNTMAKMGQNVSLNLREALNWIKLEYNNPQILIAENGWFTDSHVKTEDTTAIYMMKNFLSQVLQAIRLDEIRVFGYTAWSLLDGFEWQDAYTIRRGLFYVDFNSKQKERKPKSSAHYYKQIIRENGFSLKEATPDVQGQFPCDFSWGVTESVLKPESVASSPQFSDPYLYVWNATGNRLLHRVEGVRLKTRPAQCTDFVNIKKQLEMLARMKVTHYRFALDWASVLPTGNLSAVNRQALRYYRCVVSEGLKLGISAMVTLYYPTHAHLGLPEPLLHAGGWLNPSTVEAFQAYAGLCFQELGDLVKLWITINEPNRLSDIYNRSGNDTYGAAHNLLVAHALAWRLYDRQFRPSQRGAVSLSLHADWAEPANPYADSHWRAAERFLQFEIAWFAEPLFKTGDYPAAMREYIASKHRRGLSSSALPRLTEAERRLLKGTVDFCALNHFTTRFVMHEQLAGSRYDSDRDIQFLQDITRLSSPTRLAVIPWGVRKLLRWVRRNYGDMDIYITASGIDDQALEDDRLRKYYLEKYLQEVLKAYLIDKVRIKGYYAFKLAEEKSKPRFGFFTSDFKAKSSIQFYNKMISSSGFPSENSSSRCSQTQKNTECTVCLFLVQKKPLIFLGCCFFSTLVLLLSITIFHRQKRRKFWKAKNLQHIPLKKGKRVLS
Sequence (chain, as listed by the source, chain 2 of 2): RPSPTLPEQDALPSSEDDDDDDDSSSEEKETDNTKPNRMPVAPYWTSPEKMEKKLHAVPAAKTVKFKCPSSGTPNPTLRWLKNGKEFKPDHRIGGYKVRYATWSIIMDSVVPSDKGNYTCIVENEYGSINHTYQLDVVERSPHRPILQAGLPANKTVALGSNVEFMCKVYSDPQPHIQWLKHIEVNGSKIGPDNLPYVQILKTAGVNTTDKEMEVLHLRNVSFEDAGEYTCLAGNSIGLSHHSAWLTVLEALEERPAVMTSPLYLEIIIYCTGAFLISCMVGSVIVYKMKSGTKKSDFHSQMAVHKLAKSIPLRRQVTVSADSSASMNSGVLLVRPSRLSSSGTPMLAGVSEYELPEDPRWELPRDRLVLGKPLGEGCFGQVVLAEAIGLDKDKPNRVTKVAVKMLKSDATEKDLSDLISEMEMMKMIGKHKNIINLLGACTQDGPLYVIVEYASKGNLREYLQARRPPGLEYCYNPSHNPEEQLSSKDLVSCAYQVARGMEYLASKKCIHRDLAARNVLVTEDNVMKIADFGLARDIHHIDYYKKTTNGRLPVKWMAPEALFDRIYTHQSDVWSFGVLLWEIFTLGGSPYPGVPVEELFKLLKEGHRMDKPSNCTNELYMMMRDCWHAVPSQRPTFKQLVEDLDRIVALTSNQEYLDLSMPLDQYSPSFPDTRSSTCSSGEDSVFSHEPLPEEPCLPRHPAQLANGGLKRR
Some binders, each annotated with its measured Maximum Activation (%) without ligand.
metric: Maximum Activation (%) without ligand

{"columns": ["binder", "units-label", "recorded-value"],
 "data": [
  ["H4H8856P (antibody, V domains shown, human IgG4 Fc (H4H prefix)) VH: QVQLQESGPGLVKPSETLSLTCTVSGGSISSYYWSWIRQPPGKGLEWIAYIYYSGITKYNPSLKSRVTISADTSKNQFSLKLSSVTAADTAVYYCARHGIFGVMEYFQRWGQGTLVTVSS VL: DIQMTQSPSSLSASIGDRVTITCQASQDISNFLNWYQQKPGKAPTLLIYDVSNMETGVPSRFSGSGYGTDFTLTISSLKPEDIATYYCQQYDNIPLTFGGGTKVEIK", "%", 5],
  ["H4H8881P (antibody, V domains shown, human IgG4 Fc (H4H prefix)) VH: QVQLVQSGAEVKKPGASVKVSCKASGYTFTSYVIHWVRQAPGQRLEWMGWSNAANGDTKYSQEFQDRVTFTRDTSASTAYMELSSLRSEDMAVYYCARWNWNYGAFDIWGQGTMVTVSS VL: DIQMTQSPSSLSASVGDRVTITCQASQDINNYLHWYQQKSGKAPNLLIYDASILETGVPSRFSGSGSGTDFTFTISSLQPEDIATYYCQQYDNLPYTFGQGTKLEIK", "%", 3],
  ["H4H8852P (antibody, V domains shown, human IgG4 Fc (H4H prefix)) VH: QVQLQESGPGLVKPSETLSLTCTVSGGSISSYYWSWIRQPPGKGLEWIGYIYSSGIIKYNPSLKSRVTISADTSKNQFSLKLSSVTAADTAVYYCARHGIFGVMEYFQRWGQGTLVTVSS VL: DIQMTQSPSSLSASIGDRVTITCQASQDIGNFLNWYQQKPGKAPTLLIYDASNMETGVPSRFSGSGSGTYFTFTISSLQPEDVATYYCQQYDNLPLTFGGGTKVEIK", "%", 5],
  ["H4H8871P (antibody, V domains shown, human IgG4 Fc (H4H prefix)) VH: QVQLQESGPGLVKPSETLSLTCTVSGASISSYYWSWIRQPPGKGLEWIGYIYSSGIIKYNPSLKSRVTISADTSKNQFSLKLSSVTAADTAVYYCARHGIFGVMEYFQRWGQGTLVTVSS VL: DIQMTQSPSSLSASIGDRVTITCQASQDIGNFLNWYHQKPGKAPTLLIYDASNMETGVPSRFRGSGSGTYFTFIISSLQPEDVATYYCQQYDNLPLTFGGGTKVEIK", "%", 4]
]}

Data origin: patent US20170174769A1
